- System: MDA-N
- protocol_summary: NCI tumour cell line growth inhibition, 48 h
metric_name: TGI

I have 2 compounds here; please give me TGI for each one.
1. CC1(C)CC23CC(C)(C)c4cccc(c42)OCc2ccc4ccc5ccc(nc5c4n2)COc2cccc1c23
2. Cc1c2c(n(CCc3ccccc3)c1C)N(C)N=C(C#N)S2(=O)=O

> 50 µM
> 100 µM

I have 8 compounds here; please give me TGI for each one.
1. Cc1ccc(S(=O)(=O)N2C[C@](O)(c3ccccc3)[C@H]2C)cc1
2. NC(=O)NC(=O)c1cccc(CNc2ccc(C(=O)N[C@@H](CCC(=O)O)C(=O)O)cc2)n1
3. COC(=O)NC1(NC(=O)OC)NC(=O)c2cc(OC)c(OC)c(OC)c2N1
4. CCN1C2=NCCN2S(=O)(=O)c2ccccc21
5. CCOP(=O)(C/C=C/Cn1nc(Br)c(=O)[nH]c1=O)OCC
6. Cc1nn(C(=O)c2ccncc2)c2c1C(c1ccccc1)SC(N)=N2 (stereo not drawn)
7. C[C@@H](CN1CC(=O)NC(=O)C1)N1CC(=O)NC(=O)C1
8. O=C(O)CNc1ccc(C(=O)O)cc1

1. > 100 µM
2. > 100 µM
3. 16.9 µM
4. > 100 µM
5. > 100 µM
6. > 10 µM
7. 680 µM
8. > 100 µM

I have 2 compounds here; please give me TGI for each one.
1. CCCCOC(=O)NC(Nc1cccc(C(F)(F)F)c1)(C(F)(F)F)C(F)(F)F
2. CCOc1ccc(NC(=O)/C(=N\NC(C)(C)C)C2C(=O)Nc3ccccc3S2=O)cc1 (stereo not drawn)

1: > 100 µM; 2: > 100 µM

Please supply the value of reported TGI for the item O=C(Nc1cc2c(=O)oc3ccccc3c2oc1=O)c1cccnc1
> 100 µM

###

Assignment: determine reported GI50 for the given molecules.
- System: SK-MEL-5 melanoma
- protocol_summary: NCI tumour cell line growth inhibition, 48 h

>>> result("CCn1cc(-c2ccnc3[nH]ccc23)c(-c2cccc(NC(=O)Nc3ccc(OCc4ccccc4)cc3)c2)n1")
"13500 nM"
>>> result("N#CC(C#N)N=Nc1ccc(Br)cc1")
"5130 nM"
>>> result("CN(C)C/C=C/C(=O)Nc1cc2c(Nc3ccc(F)c(Cl)c3F)ncnc2cc1OCCOC(F)F")
"1600 nM"

I have 5 molecules here; please give me GI50 for each one.
1. CN(C)c1ncc(-c2ccc(C(F)(F)F)cc2)c(NC2CCCCCC2)n1
2. Cc1cc2cn3c4ccc(O)cc4[nH]c(=O)c3c2cc1C
3. NCCN.NCCN.O=C[O-].O=C[O-].[Co+3].[O-][Cl+3]([O-])([O-])[O-]
4. CS(=O)(=O)CCNCc1ccc(-c2ccc3ncnc(Nc4ccc(OCc5cccc(F)c5)c(C(F)(F)F)c4)c3c2)o1
5. CS(=O)(=O)Nc1cccc(-c2cc(-c3ccccc3Cl)c(C#N)c(N)n2)c1

["14000 nM", "27.2 nM", "> 100000 nM", "2840 nM", "448 nM"]

###

- Test system: HCT-116 colon
- protocol_summary: NCI tumour cell line growth inhibition, 48 h
metric_name: TGI

For orientation, consider the following solved cases.
>>> result("O=C1NC(N2CCCCC2)=N/C1=C\\c1cccs1")
"> 100 µM"
>>> result("CC1(C)CC23CC(C)(C)c4cccc(c42)OCc2ccc4ccc5ccc(nc5c4n2)COc2cccc1c23")
"> 50 µM"
>>> result("CC1=C(C(=O)Nc2cc(=O)n(C)c(=O)n2C)C(c2ccc([N+](=O)[O-])cc2)C(C(=O)Nc2cc(=O)n(C)c(=O)n2C)=C(C)N1")
"> 100 µM"

I have 4 molecules here; please give me TGI for each one.
1. COC(C(=O)C(O)C(C)O)C1CC2C=C3C=C(OC4CC(OC5CC(O)C(OC)C(C)O5)C(OC(C)=O)C(C)O4)C(C)C(=O)C3=C(O)C2=C(O)C1OC1CC(OC2CC(OC3CC(C)(O)C(OC(=O)C(C)C)C(C)O3)C(O)C(C)O2)C(O)C(C)O1 (stereo not given)
2. Clc1ccccc1C1=NN(c2ccccc2)C2c3ccccc3OCC12 (stereo not given)
3. O=C1CC(=O)NC(=NN2C(=O)/C(=C/c3ccccc3)N=C2c2ccccc2)N1
4. O=C1N2CCc3c([nH]c4ccccc34)C23CC2CCCCC12S3 (stereo not given)

> 100 µM
> 100 µM
> 100 µM
> 100 µM

I have 3 molecules here; please give me TGI for each one.
1. Cc1cc(-c2nc3ccccc3s2)ccc1N
2. COc1cc(NC(C)=O)ccc1C(=O)NN1C(=O)C(Cl)C1c1ccco1 (stereo not given)
3. Cc1ccc(C(=O)Nc2ccc(S(=O)(=O)O)c3cc(S(=O)(=O)O)cc(S(=O)(=O)O)c23)cc1NC(=S)Nc1cc(C(=O)Nc2ccc(S(=O)(=O)O)c3cc(S(=O)(=O)O)cc(S(=O)(=O)O)c23)ccc1C

> 78.7 µM
> 100 µM
> 75 µM
